# Tested on: EGFR Del19/T790M/C797S (BaF3-DTC cells)
# PROTOCOL_SUMMARY: EGFR degradation HTRF assay, BaF3-DTC cells
# Type: cell-based
# TEST_SETTINGS: 16h treatment, maximum percentage of degradation
# Description: BaF3 WT(wild type), BaF3-LTC(L858R/T790M/C797S) and BaF3-DTC(Del19/T790M/C797S) cells are treated with compounds diluted in 0.2% DMSO cell culture medium and incubate for 16h, 37° C., 5% CO2, H1975-#36, H1975-#28, H1975-#23 and HCC827 cells are treated with compounds diluted in 0.2% DMSO cell culture medium on day 2, incubate for 16h, 37° C., 5% CO2.the final concentriation of compounds in all assay is start with 10 uM, 5-fold dilution, total 8 doses were included. […]
Listed next: entries and their corresponding DTC Dmax (%).

Some compounds with recorded DTC Dmax (%):
* CCc1cc(Nc2ncc(Br)c(Nc3ccc4nccnc4c3P(C)(C)=O)n2)c(OC)cc1N1CCC(N2CCN(CCc3ccc(C4CCC(=O)NC4=O)c(F)c3)C[C@@H]2COC)CC1 (stereo partly drawn) [Example 286] | 75.85%
* CCc1cc(Nc2ncc(Br)c(Nc3ccc4nccnc4c3P(C)(C)=O)n2)c(OC)cc1N1CCC(N2CCN(CCc3ccc(C4CCC(=O)NC4=O)c(F)c3F)CC2)CC1 (stereo not drawn) [Example 10] | 85.51%

Form field DTC Dmax (%) for item CCc1cc(Nc2ncc(Br)c(Nc3ccc4nccnc4c3P(C)(C)=O)n2)c(OC)cc1N1CCC(N2CCN(CCNc3cccc4c3CN(C3CCC(=O)NC3=O)C4=O)CC2)CC1 (stereo not drawn) [Example 248] on EGFR Del19/T790M/C797S (BaF3-DTC cells): 89.62%

* * *

# TGT: EGFR L858R/C797S (BaF3 LC cells) (Homo sapiens, UniProt P00533, C797S/L858R)
# Construct: expressed in transfected cells; host or cells: BaF3
# Sequence (P00533 25-1210 C797S/L858R): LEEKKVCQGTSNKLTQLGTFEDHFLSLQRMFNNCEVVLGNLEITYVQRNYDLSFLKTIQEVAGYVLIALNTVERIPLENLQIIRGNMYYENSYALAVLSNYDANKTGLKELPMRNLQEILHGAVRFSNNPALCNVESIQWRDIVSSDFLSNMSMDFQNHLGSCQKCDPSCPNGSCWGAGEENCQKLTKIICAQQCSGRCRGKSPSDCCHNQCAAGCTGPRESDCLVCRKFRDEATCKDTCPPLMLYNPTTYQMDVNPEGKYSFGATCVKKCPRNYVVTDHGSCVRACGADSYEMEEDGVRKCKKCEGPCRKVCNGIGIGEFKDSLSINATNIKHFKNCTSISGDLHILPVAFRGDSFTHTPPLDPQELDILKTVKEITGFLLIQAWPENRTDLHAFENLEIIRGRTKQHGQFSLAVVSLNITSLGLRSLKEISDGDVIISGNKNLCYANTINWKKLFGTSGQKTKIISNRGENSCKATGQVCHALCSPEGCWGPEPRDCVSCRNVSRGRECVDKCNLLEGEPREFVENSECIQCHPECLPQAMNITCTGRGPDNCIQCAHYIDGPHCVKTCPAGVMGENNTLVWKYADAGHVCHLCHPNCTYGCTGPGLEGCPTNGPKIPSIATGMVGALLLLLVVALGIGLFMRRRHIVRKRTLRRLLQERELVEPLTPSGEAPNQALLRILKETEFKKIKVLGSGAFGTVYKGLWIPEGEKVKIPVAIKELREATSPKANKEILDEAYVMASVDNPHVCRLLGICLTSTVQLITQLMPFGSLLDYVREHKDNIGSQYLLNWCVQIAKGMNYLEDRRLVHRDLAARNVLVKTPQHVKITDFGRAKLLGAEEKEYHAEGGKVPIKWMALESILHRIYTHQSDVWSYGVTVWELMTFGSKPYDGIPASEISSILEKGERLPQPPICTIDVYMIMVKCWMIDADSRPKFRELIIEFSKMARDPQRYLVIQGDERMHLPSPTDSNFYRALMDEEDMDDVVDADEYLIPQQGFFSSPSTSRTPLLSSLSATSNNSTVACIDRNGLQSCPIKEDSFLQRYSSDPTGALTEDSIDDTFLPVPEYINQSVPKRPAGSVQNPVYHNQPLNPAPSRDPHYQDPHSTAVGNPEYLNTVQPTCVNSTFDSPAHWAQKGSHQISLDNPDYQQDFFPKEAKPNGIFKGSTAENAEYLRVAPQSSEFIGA
# PROTOCOL_SUMMARY: EGFR degradation HTRF assay, BaF3 LC cells
# Format: cell-based
# TEST_SETTINGS: BaF3 LC, 16h treatment, maximum percentage of degradation; read-out: BaF3 LC Dmax (%)
So basically, if Dmax comes in under 80% it's true, and if it's 80% or more it's false.

Check out these entries, answers already filled in.
• CCOc1cc(N2CCC(N3CCN(CCCc4cc(F)cc5c4oc(=O)n5C4CCC(=O)NC4=O)CC3)CC2)c(CC)cc1Nc1ncc(Br)c(Nc2ccc3nc(CC)ccc3c2P(C)(C)=O)n1 (centres unmarked) = false
• CCc1cc(Nc2ncc(Br)c(Nc3ccc4c(=O)n(C)ncc4c3P(C)(C)=O)n2)c(OC)cc1N1CCC(N2CCN(C(=O)[C@@H]3CCN(c4cc(F)c([C@H]5CCC(=O)NC5=O)c(F)c4)C3)CC2)CC1 = false
• CCc1cc(Nc2ncc(Br)c(Nc3ccc4c(=O)n(C5CC5)ncc4c3P(C)(C)=O)n2)c(OC)cc1N1CCC(N2CCN(CCc3cc(F)c(C4CCC(=O)NC4=O)c(F)c3)CC2)CC1 (centres unmarked) = true
• CCc1cc(Nc2ncc(Br)c(Nc3ccc4nc(C)ccc4c3P(C)(C)=O)n2)c(OC)cc1N1CCC(N2CCN(CCc3cccc4c3C(C)(C)C(=O)N4C3CCC(=O)NC3=O)CC2)CC1 (centres unmarked) = false

# input for lookup
*Q* Does CCOc1cc(N2CCC(N3CCN(C(=O)[C@@H]4CCN(c5cc(F)c([C@H]6CCC(=O)NC6=O)c(F)c5)C4)CC3)CC2)c(CC)cc1Nc1ncc(Br)c(Nc2ccc3nc(C)ccc3c2P(C)(C)=O)n1 have Dmax strictly under 80%?
*A* false

* * *

# System: EGFR Del19/T790M/C797S (BaF3-DTC cells)
# PROTOCOL_SUMMARY: EGFR degradation HTRF assay, BaF3-DTC cells
# Assay type: cell-based
# TEST_SETTINGS: 16h treatment, maximum percentage of degradation
Threshold rule: DTC Dmax (%) greater than or equal to 90% is TRUE; below that, FALSE.

Please review the entries below; each comes with its answer.
• CCc1cc(Nc2ncc(Br)c(Nc3ccc4nccnc4c3P(C)(C)=O)n2)c(OC)cc1N1CCC(N2CCN(CCc3ccc(C4CCC(=O)NC4=O)c(F)c3)[C@H](COC)C2)CC1 (some centres unmarked) = FALSE
• CCc1cc(Nc2ncc(Br)c(Nc3ccc4nccnc4c3P(C)(C)=O)n2)c(OC)cc1N1CCC(N2CCN(C(=O)C3CN(c4ccc(C5CCC(=O)NC5=O)c(F)c4)C3)CC2)CC1 (centres unmarked) = FALSE
• CCc1cc(Nc2ncc(Br)c(Nc3ccc4c(=O)n(C)ccc4c3P(C)(C)=O)n2)c(OC)cc1N1CCC(N2CCN(CCC3CCN(c4cc(F)c(C5CCC(=O)NC5=O)c(F)c4)CC3)CC2)CC1 (centres unmarked) = FALSE
• CCc1cc(Nc2ncc(Br)c(Nc3ccc4ncccc4c3P(C)(C)=O)n2)c(OC)cc1N1CCC(N2CCN(CCC3CCN(c4cc(F)c(C5CCC(=O)NC5=O)c(F)c4)CC3)CC2)CC1 (centres unmarked) = TRUE
• CCc1cc(Nc2ncc(Br)c(Nc3ccc4nc(C)ccc4c3P(C)(C)=O)n2)c(OC)cc1N1CCC(N2CCC(C(=O)N3CCC(c4cc(F)c(C5CCC(=O)NC5=O)c(F)c4)CC3)CC2)CC1 (centres unmarked) = FALSE

*Q* Could you tell me if the measured DTC Dmax (%) of CCc1cc(Nc2ncc(Br)c(Nc3ccc4nccnc4c3P(C)(C)=O)n2)c(OC)cc1N1CCC(N2CCN(CC3CN(c4ccc5c(c4)CN(C4CCC(=O)NC4=O)C5=O)C3)CC2)CC1 (centres unmarked) reaches 90% or more?
*A* TRUE

*Q* Determine whether this compound has DTC Dmax (%) no lower than 90%: CCc1cc(Nc2ncc(Br)c(Nc3ccc4nccnc4c3P(C)(C)=O)n2)c(OC)cc1N1CCC(N2CCN(CCc3ccc(C4CCC(=O)NC4=O)c(F)c3)CC2)CC1 (centres unmarked)
*A* TRUE

*Q* Form field: DTC Dmax (%) at least 90%? Entry: CCc1cc(Nc2ncc(Br)c(Nc3ccc4cc(C)ncc4c3P(C)(C)=O)n2)c(OC)cc1N1CCC(N2CCN(CCc3cc(F)c(C4CCC(=O)NC4=O)c(F)c3)CC2)CC1 (centres unmarked)
*A* TRUE

* * *

# TGT: EGFR L858R/T790M/C797S (BaF3-LTC cells) (Homo sapiens, UniProt P00533, C797S/L858R/T790M)
# Construct: expressed in transfected cells; host or cells: BaF3
# Sequence (P00533 25-1210 T790M/C797S/L858R): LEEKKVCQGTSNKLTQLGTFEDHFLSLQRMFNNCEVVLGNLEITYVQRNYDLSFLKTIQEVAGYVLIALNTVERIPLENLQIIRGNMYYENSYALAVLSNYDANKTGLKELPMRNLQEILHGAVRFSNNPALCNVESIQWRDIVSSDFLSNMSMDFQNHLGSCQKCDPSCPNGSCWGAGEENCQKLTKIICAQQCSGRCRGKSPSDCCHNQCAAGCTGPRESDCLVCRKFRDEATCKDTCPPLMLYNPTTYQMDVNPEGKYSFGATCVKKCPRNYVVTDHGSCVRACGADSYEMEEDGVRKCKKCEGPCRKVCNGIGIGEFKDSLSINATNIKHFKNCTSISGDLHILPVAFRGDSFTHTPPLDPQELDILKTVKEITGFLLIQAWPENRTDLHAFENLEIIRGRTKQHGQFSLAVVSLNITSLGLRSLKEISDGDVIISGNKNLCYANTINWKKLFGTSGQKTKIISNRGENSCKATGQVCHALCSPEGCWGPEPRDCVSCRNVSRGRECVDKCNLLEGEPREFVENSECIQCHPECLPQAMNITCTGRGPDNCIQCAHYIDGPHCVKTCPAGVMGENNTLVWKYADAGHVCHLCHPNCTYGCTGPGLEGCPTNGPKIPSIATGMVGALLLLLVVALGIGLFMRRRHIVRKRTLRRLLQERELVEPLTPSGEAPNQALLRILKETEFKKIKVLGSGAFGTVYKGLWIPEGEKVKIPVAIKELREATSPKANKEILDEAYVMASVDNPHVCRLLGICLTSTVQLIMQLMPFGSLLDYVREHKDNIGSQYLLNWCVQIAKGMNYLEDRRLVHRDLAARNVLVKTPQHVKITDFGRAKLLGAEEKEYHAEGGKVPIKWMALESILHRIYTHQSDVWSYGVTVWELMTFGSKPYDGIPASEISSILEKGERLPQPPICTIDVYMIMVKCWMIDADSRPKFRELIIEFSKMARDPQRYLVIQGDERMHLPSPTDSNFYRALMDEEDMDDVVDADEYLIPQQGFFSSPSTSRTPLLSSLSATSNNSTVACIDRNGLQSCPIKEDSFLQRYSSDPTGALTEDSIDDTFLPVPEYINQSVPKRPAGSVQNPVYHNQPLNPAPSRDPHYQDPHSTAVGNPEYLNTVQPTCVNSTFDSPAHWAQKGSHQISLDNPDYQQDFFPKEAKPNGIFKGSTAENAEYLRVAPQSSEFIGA
# PROTOCOL_SUMMARY: EGFR degradation HTRF assay, BaF3-LTC cells
# Format: cell-based
# TEST_SETTINGS: BaF3-LTC cells; EGFR degradation, IC50 (DC50) from curve fit; read-out: DC50(nM) BaF3-LTC
// returns Condition not met unless DC50 is strictly below 7 nM, in which case Condition met

Record excerpt, results attached:
- CCOc1cc(N2CCC(N3CCN(CCc4cccc5c4n(CC)c(=O)n5C4CCC(=O)NC4=O)CC3)CC2)c(CC)cc1Nc1ncc(Br)c(Nc2ccc3nc(CC)ccc3c2P(C)(C)=O)n1 (centres unmarked): Condition met
- CCc1cc(Nc2ncc(Br)c(Nc3ccc4nc(C)ccc4c3P(C)(C)=O)n2)c(OC)cc1N1CCC(N2CCN(C(=O)[C@H]3CN(c4cc(F)c([C@H]5CCC(=O)NC5=O)c(F)c4)CC3(C)C)CC2)CC1: Condition met
- CCc1ccc2c(P(C)(C)=O)c(Nc3nc(Nc4cc(CC)c(N5CCC(N6CCN(CC7CN(c8cc(F)cc9c8oc(=O)n9C8CCC(=O)NC8=O)C7)CC6)CC5)cc4OC)ncc3Br)ccc2n1 (centres unmarked): Condition met

*Q* Is DC50 of CCc1ccc2c(P(C)(C)=O)c(Nc3nc(Nc4cc(CC)c(N5CCC(N6CCN(CCc7ccc8c(c7)oc(=O)n8C7CCC(=O)NC7=O)CC6)CC5)cc4OC)ncc3Br)ccc2n1 (centres unmarked) strictly below 7 nM?
*A* Condition met

*Q* Check if DC50 falls below 7 nM for CCOc1cc(N2CCC(N3CCN(CC4CN(c5cc(F)cc6c5oc(=O)n6C5CCC(=O)NC5=O)C4)CC3)CC2)c(CC)cc1Nc1ncc(Br)c(Nc2ccc3nc(CC)ccc3c2P(C)(C)=O)n1 (centres unmarked) .
*A* Condition not met

* * *

# TGT: EGFR WT (BaF3 WT cells) (Homo sapiens, UniProt P00533)
# Construct: expressed in transfected cells; host or cells: BaF3
# Sequence (P00533 25-1210): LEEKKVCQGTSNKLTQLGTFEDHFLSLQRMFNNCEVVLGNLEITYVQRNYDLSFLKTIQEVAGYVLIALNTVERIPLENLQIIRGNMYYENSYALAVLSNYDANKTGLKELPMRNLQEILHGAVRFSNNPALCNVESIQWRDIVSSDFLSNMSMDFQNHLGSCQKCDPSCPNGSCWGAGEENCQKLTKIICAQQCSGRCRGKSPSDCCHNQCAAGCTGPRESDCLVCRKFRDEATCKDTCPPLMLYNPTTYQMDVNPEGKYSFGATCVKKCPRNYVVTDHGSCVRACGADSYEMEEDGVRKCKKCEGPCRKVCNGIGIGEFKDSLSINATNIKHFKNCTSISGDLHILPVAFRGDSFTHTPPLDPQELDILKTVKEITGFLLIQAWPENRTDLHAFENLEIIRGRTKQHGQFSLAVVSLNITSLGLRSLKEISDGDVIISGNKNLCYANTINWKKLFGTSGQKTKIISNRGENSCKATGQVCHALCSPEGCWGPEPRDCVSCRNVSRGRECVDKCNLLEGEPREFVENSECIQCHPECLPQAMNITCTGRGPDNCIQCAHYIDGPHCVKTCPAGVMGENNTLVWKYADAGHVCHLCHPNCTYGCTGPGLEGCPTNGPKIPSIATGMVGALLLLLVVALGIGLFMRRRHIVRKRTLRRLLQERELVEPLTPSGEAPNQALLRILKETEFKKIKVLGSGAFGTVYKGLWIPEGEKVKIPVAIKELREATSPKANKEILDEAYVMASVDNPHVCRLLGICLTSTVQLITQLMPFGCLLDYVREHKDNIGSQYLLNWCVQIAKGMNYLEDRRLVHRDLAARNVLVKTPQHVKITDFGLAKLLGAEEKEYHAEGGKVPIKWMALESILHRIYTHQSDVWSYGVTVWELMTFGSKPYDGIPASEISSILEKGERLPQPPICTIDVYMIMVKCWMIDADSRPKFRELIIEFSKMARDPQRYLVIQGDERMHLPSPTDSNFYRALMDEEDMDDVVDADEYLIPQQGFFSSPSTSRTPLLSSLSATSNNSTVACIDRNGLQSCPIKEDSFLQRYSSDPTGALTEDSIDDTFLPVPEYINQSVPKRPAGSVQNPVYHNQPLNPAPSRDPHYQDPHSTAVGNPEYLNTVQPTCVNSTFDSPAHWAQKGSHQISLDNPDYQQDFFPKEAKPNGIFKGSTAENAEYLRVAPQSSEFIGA
# PROTOCOL_SUMMARY: EGFR degradation HTRF assay, BaF3 WT cells
# Type: cell-based
# TEST_SETTINGS: BaF3 WT, 16h treatment, maximum percentage of degradation; read-out: WT Dmax (%)
Decide by Dmax: equal to or exceeding 20% means met, less means not met.

Reference set, count: 4
- CCc1cc(Nc2ncc(Br)c(Nc3ccc4nccnc4c3P(C)(C)=O)n2)c(OC)cc1N1CCC(N2CCN(CCC3CCN(c4ccc(C5CCC(=O)NC5=O)cc4)CC3)CC2)CC1 (centres unmarked): not met
- CCc1cc(Nc2ncc(Br)c(Nc3ccc4nccnc4c3P(C)(C)=O)n2)c(OC)cc1N1CCC(N2CCN(CCCN3CCN(c4ccc5c(c4)C(=O)N(C4CCC(=O)NC4=O)C5=O)CC3)CC2)CC1 (centres unmarked): met
- COc1cc(N2CCC(N3CCN(C(=O)CCN4CCC(c5ccc(C6CCC(=O)NC6=O)cc5)CC4)CC3)CC2)ccc1Nc1ncc(Cl)c(Nc2ccccc2N(C)S(C)(=O)=O)n1 (centres unmarked): met
- CCc1cc(Nc2ncc(Br)c(Nc3ccc4nccnc4c3P(C)(C)=O)n2)c(OC)cc1N1CCC(N2CCN(CCC3CCN(c4ccc(C5CCC(=O)NC5=O)c(C#N)c4)CC3)CC2)CC1 (centres unmarked): met

*Q* Quick check, Dmax >= 20%? CP(C)(=O)c1c(Nc2nc(Nc3ccc(N4CCN(C5CN(CCC6CCN(c7ccc(C8CCC(=O)NC8=O)c(F)c7)CC6)C5)CC4)c(F)c3)ncc2Br)ccc2nccnc12 (centres unmarked)
*A* met
